# Tested on: MDA-MB-435 melanoma
# protocol: NCI-60 one-dose screen, 48 h (100 = growth as untreated, 0 = no growth, -100 = all killed)
# stated.conditions: 10 µM unless noted
# Procedure: Growth inhibition of the MDA-MB-435 human Melanoma tumor cell line is measured as a screen for anti-cancer activity. Cells are grown in 96 well plates and exposed to the test compound for 48 hours. Compounds are tested at a single concentration, which is 10^-5 M for most compounds. The reported endpoint is percent growth (GI% or GIPRCNT), where numbers from 0 - 100% represent growth inhibition, and numbers from -100% - 0 represent cell death. […]
Compounds without any hit were thinned out: in the full panel of roughly 83,000, 20% have a hit.
Each entry below carries its reported growth.
test.readout: growth (%)

- compound: "CCN1C[C@@H](C)n2c(c(O)c3c(=O)n(Cc4ccc(F)c(Cl)c4)nc(C(=O)NC)c32)C1=O"
  value.measured: 27.4
- compound: "COc1cc(/C=C/C(=O)Nc2ccc3c(c2)/C(=C\\c2cccn2C)C(=O)N3)cc(OC)c1OC"
  value.measured: 59.9
- compound: "Cc1cc(C)c(OC(=O)CSc2nc3ccccc3c(=O)n2CCc2ccccc2)cc1C"
  value.measured: 100
- compound: "CCc1[nH]nc(-c2ccc(OC)cc2)c1-c1ccccc1OCCN(CC)CC"
  value.measured: 101
- compound: "C[N+]1(CCC[N+]2(C)C[C@@H]3[C@H](C2)[C@@H]2C=C[C@H]3C2)CCOCC1 (stereo not given in full)"
  value.measured: 113
- compound: "COc1cc(OC)c2sc(-c3ccc(-n4cncc4-c4ccc(N)cc4)cc3)nc2c1"
  value.measured: 62.9
- compound: "CN1C(=O)C(=Cc2cn(Cc3ccccc3)c3ccc(Br)cc23)C(=O)N(C)C1=O"
  value.measured: 102
- compound: "COc1cc(/C=C/C(=O)c2c(-c3ccc(Cl)cc3)nc3sc(C)nn23)cc(OC)c1OC"
  value.measured: 73.9
- compound: "COc1ncc(-c2ccc3nccc(C#CCN4CCN(S(C)(=O)=O)CC4)c3c2)cc1NS(=O)(=O)c1ccc(F)cc1F"
  value.measured: -23
- compound: "CN=C(NC)N/N=C(C)\\C=N\\NC(=NC)NC"
  value.measured: 104
- compound: "CCN(CC)c1ccc(CN(CC(=O)c2ccc(Cl)c(Cl)c2)Cc2ccccc2)cc1"
  value.measured: 106
- compound: "CCCCN(CCCC)CCCOC(=O)c1ccc(N)cc1"
  value.measured: -3.25
- compound: "COc1cc(/C=C/C(=O)c2c(-c3ccc(F)cc3)nc3sc(C)nn23)cc(OC)c1OC"
  value.measured: 11.9
- compound: "COc1ccc(-c2nc3sccn3c2-c2ccnc(S(C)(=O)=O)n2)cc1"
  value.measured: 82.7
- compound: "COC(=O)[C@]1(CCSC)N[C@H](c2cn(-c3ccccc3)nc2C)[C@@H]2C(=O)N(c3ccc(C)cc3)C(=O)[C@@H]21"
  value.measured: 105
- compound: "O=Cc1c[nH]c2ccc(NC(=O)OCc3ccccc3)cc12"
  value.measured: 115
- compound: "COc1cc(C2CC(c3ccc(C)cc3)=NN2C(C)=O)ccc1Oc1ccnc2cc(Cl)ccc12 (stereo not given)"
  value.measured: 100
- compound: "COc1cc([C@@H]2c3cc4c(cc3C(O[C@@H]3O[C@@H]5CO[C@@H](c6cccs6)OC5[C@H](O)[C@H]3O)C3COC(=O)[C@@H]32)OCO4)cc(OC)c1O (stereo not given in full)"
  value.measured: -21.1
- compound: "COc1ccc(C2CC(c3ccc(OC)c(OC)c3)=NN2C(=O)c2cc(OC)c(OC)c(OC)c2)cc1 (stereo not given)"
  value.measured: -26.6
- compound: "O=C(Nc1nc(-c2ccc(Cl)cc2)cs1)c1cc(O)c(O)c(O)c1"
  value.measured: 41
- compound: "CCOC(=O)/C(=C/c1ccccc1)C(=O)c1ccccc1"
  value.measured: 50.8
- compound: "Nc1nc(Cl)c2[nH]cnc2n1"
  value.measured: 102
- compound: "C=C(C)[C@H]1CC/C(C)=C/CC[C@]2(C)O[C@H]2CC/C(C=O)=C\\C1O (stereo not given in full)"
  value.measured: 120
- compound: "COc1cc2cn3c4ccc(O)cc4nc(N)c3c2cc1OC"
  value.measured: 12.4
- compound: "Cc1nn(-c2ccccc2)c2nc(Cl)c(/C=C/C(=O)c3ccccc3)c(-c3ccccc3)c12"
  value.measured: 103
- compound: "CCOC(=O)C(Cc1ccccc1)(C(=O)OCC)C(Br)C(=O)c1ccccc1 (stereo not given)"
  value.measured: 77.3
- compound: "COc1ccc(-c2csc(NC(=O)c3cc(OC)c(OC)c(OC)c3)n2)cc1"
  value.measured: 96.4
- compound: "O=[N+]([O-])c1ccc(N/N=C/c2c(O)ccc3ccccc23)nc1"
  value.measured: 58.5
- compound: "O=C1NCN(CCO)CN1"
  value.measured: 97.1
- compound: "Cc1nn(-c2ccccc2)c2ncc3c(c12)C(=O)N(Cc1ccccc1)C3=O"
  value.measured: 90.7
